SYSTEM_TESTED: Carbonic anhydrase 1 (Homo sapiens)
Sequence (P00915 whole entry): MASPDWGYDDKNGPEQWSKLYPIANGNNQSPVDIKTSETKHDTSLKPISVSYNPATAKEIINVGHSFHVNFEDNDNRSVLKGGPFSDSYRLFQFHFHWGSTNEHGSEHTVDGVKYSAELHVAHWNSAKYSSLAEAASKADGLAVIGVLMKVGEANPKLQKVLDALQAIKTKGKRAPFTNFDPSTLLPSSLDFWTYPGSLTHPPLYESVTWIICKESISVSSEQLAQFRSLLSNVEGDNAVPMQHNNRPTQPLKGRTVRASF
Exercise: for every item that follows, state its recorded Ki.

Ki in this record for Cc1nn(-c2ccccc2)c2c1c(=O)oc1ccc(N(C)C)cc12 : > 10 µM

Lookup result for Cc1nn(-c2ccccc2)c2c1c(=O)oc1cc(Cl)ccc12 ; measured Ki: > 10 µM

Sample O=c1oc2ccccc2c2nn(-c3ccccc3)cc12 ; Ki observed: > 10 µM

Please fill in: Ki reported for Cc1nn(Cc2ccccc2)c2c1c(=O)oc1ccccc12 = > 10 µM

Value of measured Ki for the entry Cc1nn(-c2ccc(Cl)cc2)c2c1c(=O)oc1ccccc12 : > 10 µM

Kindly note the recorded Ki for CC(=O)c1cc2ccccc2oc1=O , which is > 10 µM

====

MEASURED_PROPERTY: pKi
Scale note: pKi = -log10(concentration in M).

Bench note, Carbonic anhydrase 9 (Homo sapiens): entry Cc1c2c(=O)oc3ccc([N+](=O)[O-])cc3c2nn1-c1ccccc1 , its pKi = 7.45

Sample Cc1nn(-c2ccccc2)c2c1c(=O)oc1ccc(N(C)C)cc12 , system: Carbonic anhydrase 9 (Homo sapiens). Its pKi is 7.23

Note to self: pKi of COc1c(C(C)=O)c(=O)oc2ccccc12 with Carbonic anhydrase 9 (Homo sapiens) was 7.55

Record Cc1nn(-c2ccccc2)c2c1c(=O)oc1ccc([N+](=O)[O-])cc12 has Carbonic anhydrase 9 (Homo sapiens) pKi equal to 7.57

Entry Cc1nn(-c2ccccc2)c2c1c(=O)oc1cc(Cl)c([N+](=O)[O-])cc12 under Carbonic anhydrase 9 (Homo sapiens) had pKi of 6.10

Sample Cc1nn(-c2ccccc2C(=O)O)c2c1c(=O)oc1ccccc12 , system: Carbonic anhydrase 9 (Homo sapiens). Its pKi is 7.11

Item CCOc1c(C(C)=O)c(=O)oc2ccc(Br)cc12 ; assay system Carbonic anhydrase 9 (Homo sapiens); pKi reported as 7.33

Bench note, Carbonic anhydrase 9 (Homo sapiens): Cc1nn(-c2ccc(C(=O)O)cc2)c2c1c(=O)oc1ccccc12 , pKi reads 5.71

Known value: Carbonic anhydrase 9 (Homo sapiens) pKi of the compound Cc1nn(-c2ccccc2)c2c1c(=O)oc1ccccc12 equals 8.02

For Cn1nc2c(c1Cc1ccccc1)c(=O)oc1ccccc12 on Carbonic anhydrase 9 (Homo sapiens), measured pKi was 6.26

COc1c(C(C)=O)c(=O)oc2ccc(Br)cc12 on Carbonic anhydrase 9 (Homo sapiens) gives pKi = 7.04

====

Kindly supply the reported log10 Ki values for the records listed here.
Reminder: these figures are log10 of reported Ki, in nM before transformation.

Measured log10 Ki for this entry CC(=O)c1cc2cc([N+](=O)[O-])ccc2oc1=O on Carbonic anhydrase 12 (Homo sapiens): 2.84

Field log10 Ki (Carbonic anhydrase 12 (Homo sapiens)), entry Cc1nn(-c2ccccc2)c2c1c(=O)oc1ccc(Br)cc12 : 0.85

Item: CC(=O)Nc1ccc2oc(=O)c3c(C)nn(-c4ccccc4)c3c2c1 | System: Carbonic anhydrase 12 (Homo sapiens) | log10 Ki: 2.81

Cc1nn(-c2ccccc2)c2c1c(=O)oc1ccccc12 on Carbonic anhydrase 12 (Homo sapiens) gives log10 Ki = 0.76

Sample O=c1oc2ccccc2c2nn(Cc3ccccc3)c(Cc3ccccc3)c12 , system: Carbonic anhydrase 12 (Homo sapiens). Its log10 Ki is 2.83

For Cc1nn(-c2ccccc2)c2c1c(=O)oc1ccc(N(C)C)cc12 on Carbonic anhydrase 12 (Homo sapiens), measured log10 Ki was 2.56

For the compound Cc1cc2c(c(C)nn2-c2ccccc2)c(=O)o1 , the measured log10 Ki on Carbonic anhydrase 12 (Homo sapiens) was 2.71

The value of log10 Ki recorded for Cc1c2c(=O)oc3ccccc3c2nn1-c1ccccc1 when tested on Carbonic anhydrase 12 (Homo sapiens) reads 2.77

Observed log10 Ki on Carbonic anhydrase 12 (Homo sapiens), entry O=c1oc2ccccc2c2c1c(Cc1ccccc1)nn2Cc1ccccc1 , equals 2.91

====

Kindly supply the reported pKi values for the records listed here.
To interpret pKi, take it as minus log10 of a concentration measured in moles per litre.

Readout pKi for O=c1oc2ccccc2c2c1cnn2-c1ccccc1 , test system Carbonic anhydrase 9 (Homo sapiens), was 7.52

Noted pKi for CC(=O)Nc1ccc2oc(=O)c3c(C)nn(-c4ccccc4)c3c2c1 , tested on Carbonic anhydrase 9 (Homo sapiens): 7.57

Form field, pKi with Carbonic anhydrase 9 (Homo sapiens), item Cn1nc(Cc2ccccc2)c2c(=O)oc3ccccc3c21 : 7.71

Record Cc1nn(-c2ccccc2)c2c1c(=O)oc1cc(Cl)ccc12 / Carbonic anhydrase 9 (Homo sapiens), pKi recorded as 7.24

Carbonic anhydrase 9 (Homo sapiens) assay, molecule O=c1oc2ccccc2c2c1c(Cc1ccccc1)nn2Cc1ccccc1 , recorded pKi = 7.50

====

For each record, write down the corresponding pKi.
SYSTEM_TESTED: Carbonic anhydrase 12 (Homo sapiens)
Sequence (O43570 whole entry): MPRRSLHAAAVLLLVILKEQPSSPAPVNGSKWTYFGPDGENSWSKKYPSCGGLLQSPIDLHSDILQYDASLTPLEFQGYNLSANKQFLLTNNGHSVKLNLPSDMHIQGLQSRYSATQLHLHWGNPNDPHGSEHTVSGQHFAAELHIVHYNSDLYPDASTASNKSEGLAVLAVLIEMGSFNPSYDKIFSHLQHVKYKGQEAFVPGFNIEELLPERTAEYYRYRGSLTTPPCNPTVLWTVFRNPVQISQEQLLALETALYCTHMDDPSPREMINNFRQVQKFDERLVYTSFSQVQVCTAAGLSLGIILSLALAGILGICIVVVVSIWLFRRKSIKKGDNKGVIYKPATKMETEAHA
ASSAY_COMMENT: Inhibition of human CA12 after 15 mins by stopped-flow CO2 hydration assay
pKi: −log10 of the molar value.

Record Cc1cc2nn(-c3ccccc3)c(C)c2c(=O)o1 . Reported pKi: < 5.00

compound Cc1c2c(=O)oc3ccc(Br)cc3c2nn1-c1ccccc1 , pKi observed: < 5.00

The reported value for O=c1oc2ccccc2c2c1cnn2-c1ccccc1 in terms of pKi is < 5.00
